- Test system: Escherichia coli TOP10
- PROCEDURE SUMMARY: shrunken log2 fold change of peptide-encoding DNA abundance (4.5 h post-induction vs induction); higher = less antimicrobial activity (less host growth inhibition)
- RECORDED CONDITIONS: time post-induction: 4.5 h; library: site-saturation at positions 5, 18, 19, 20
Quick list: shrunken log2 fold change per entry.

- ORDERED RESIDUES: "RRIRARPPRLPRPRPRPCKLPRP"
  shrunken log2 fold change: -0.693
- ORDERED RESIDUES: "RRIRARPPRLPRPRPRPGAGPRP"
  shrunken log2 fold change: 0.767
- ORDERED RESIDUES: "RRIRWRPPRLPRPRPRPTVDPRP"
  shrunken log2 fold change: 0.296
- ORDERED RESIDUES: "RRIRYRPPRLPRPRPRPRCPPRP"
  shrunken log2 fold change: -0.167
- ORDERED RESIDUES: "RRIRVRPPRLPRPRPRPPLCPRP"
  shrunken log2 fold change: 0.338
- ORDERED RESIDUES: "RRIRSRPPRLPRPRPRPATRPRP"
  shrunken log2 fold change: 0.415
- ORDERED RESIDUES: "RRIRSRPPRLPRPRPRPMVNPRP"
  shrunken log2 fold change: 0.00321
- ORDERED RESIDUES: "RRIRQRPPRLPRPRPRPQVRPRP"
  shrunken log2 fold change: -0.276
- ORDERED RESIDUES: "RRIRMRPPRLPRPRPRPWDKPRP"
  shrunken log2 fold change: -0.0134
- ORDERED RESIDUES: "RRIRARPPRLPRPRPRPNMFPRP"
  shrunken log2 fold change: -0.0712
- ORDERED RESIDUES: "RRIRERPPRLPRPRPRPIVSPRP"
  shrunken log2 fold change: 0.0707
- ORDERED RESIDUES: "RRIRHRPPRLPRPRPRPILYPRP"
  shrunken log2 fold change: -0.123
- ORDERED RESIDUES: "RRIRQRPPRLPRPRPRPDGNPRP"
  shrunken log2 fold change: -0.26
- ORDERED RESIDUES: "RRIRPRPPRLPRPRPRPERDPRP"
  shrunken log2 fold change: 0.195
- ORDERED RESIDUES: "RRIRGRPPRLPRPRPRPMLGPRP"
  shrunken log2 fold change: 1.19
- ORDERED RESIDUES: "RRIRFRPPRLPRPRPRPSYHPRP"
  shrunken log2 fold change: -0.485
- ORDERED RESIDUES: "RRIRIRPPRLPRPRPRPYNFPRP"
  shrunken log2 fold change: -0.99
- ORDERED RESIDUES: "RRIRQRPPRLPRPRPRPWMPPRP"
  shrunken log2 fold change: -0.167
- ORDERED RESIDUES: "RRIRSRPPRLPRPRPRPRIRPRP"
  shrunken log2 fold change: -0.0466
- ORDERED RESIDUES: "RRIRCRPPRLPRPRPRPYFMPRP"
  shrunken log2 fold change: -0.91
- ORDERED RESIDUES: "RRIRNRPPRLPRPRPRPEQHPRP"
  shrunken log2 fold change: 0.0592
- ORDERED RESIDUES: "RRIRWRPPRLPRPRPRPFQVPRP"
  shrunken log2 fold change: -0.19
- ORDERED RESIDUES: "RRIRVRPPRLPRPRPRPYPYPRP"
  shrunken log2 fold change: -0.0982
- ORDERED RESIDUES: "RRIRTRPPRLPRPRPRPNTTPRP"
  shrunken log2 fold change: -0.164
- ORDERED RESIDUES: "RRIRNRPPRLPRPRPRPINEPRP"
  shrunken log2 fold change: -0.056
- ORDERED RESIDUES: "RRIRARPPRLPRPRPRPPICPRP"
  shrunken log2 fold change: -0.0154
- ORDERED RESIDUES: "RRIRGRPPRLPRPRPRPTNHPRP"
  shrunken log2 fold change: 0.169
- ORDERED RESIDUES: "RRIRNRPPRLPRPRPRPMYCPRP"
  shrunken log2 fold change: -0.268
- ORDERED RESIDUES: "RRIRDRPPRLPRPRPRPHNIPRP"
  shrunken log2 fold change: -0.53
- ORDERED RESIDUES: "RRIRVRPPRLPRPRPRPCGYPRP"
  shrunken log2 fold change: 0.0222
- ORDERED RESIDUES: "RRIRRRPPRLPRPRPRPRWAPRP"
  shrunken log2 fold change: 0.206
- ORDERED RESIDUES: "RRIRPRPPRLPRPRPRPGYCPRP"
  shrunken log2 fold change: -0.147

###

- Test system: Escherichia coli TOP10
- PROCEDURE SUMMARY: shrunken log2 fold change of peptide-encoding DNA abundance (4.5 h post-induction vs induction); higher = less antimicrobial activity (less host growth inhibition)
- RECORDED CONDITIONS: time post-induction: 4.5 h; library: site-saturation at positions 5, 18, 19, 20
Quick list: shrunken log2 fold change per entry.
REPORTED PROPERTY: shrunken log2 fold change

- ORDERED RESIDUES: "RRIRGRPPRLPRPRPRPGVTPRP"
  REPORTED PROPERTY: "shrunken log2 fold change"
  MEAS VALUE: 0.721
- ORDERED RESIDUES: "RRIRFRPPRLPRPRPRPPNNPRP"
  REPORTED PROPERTY: "shrunken log2 fold change"
  MEAS VALUE: -0.445
- ORDERED RESIDUES: "RRIRDRPPRLPRPRPRPEQMPRP"
  REPORTED PROPERTY: "shrunken log2 fold change"
  MEAS VALUE: 0.861
- ORDERED RESIDUES: "RRIRKRPPRLPRPRPRPAFEPRP"
  REPORTED PROPERTY: "shrunken log2 fold change"
  MEAS VALUE: 0.158
- ORDERED RESIDUES: "RRIRYRPPRLPRPRPRPRSFPRP"
  REPORTED PROPERTY: "shrunken log2 fold change"
  MEAS VALUE: -0.0868
- ORDERED RESIDUES: "RRIRDRPPRLPRPRPRPPWGPRP"
  REPORTED PROPERTY: "shrunken log2 fold change"
  MEAS VALUE: 0.344
- ORDERED RESIDUES: "RRIRQRPPRLPRPRPRPQYTPRP"
  REPORTED PROPERTY: "shrunken log2 fold change"
  MEAS VALUE: -0.249
- ORDERED RESIDUES: "RRIRHRPPRLPRPRPRPPAVPRP"
  REPORTED PROPERTY: "shrunken log2 fold change"
  MEAS VALUE: 0.373

###

- Tested on: Escherichia coli TOP10;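 note: peptides expressed intracellularly from a pBAD plasmid library in pooled LB shake-flask culture, induced with 0.3% L-arabinose, DNA abundance read by NGS, three biological replicates, DESeq2 with apeglm shrinkage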
- PROCEDURE SUMMARY: shrunken log2 fold change of peptide-encoding DNA abundance (4.5 h post-induction vs induction); higher = less antimicrobial activity (less host growth inhibition)
- RECORDED CONDITIONS: time post-induction: 4.5 h; library: site-saturation at positions 5, 18, 19, 20
Binary call on shrunken log2 fold change: Yes from -0.2 upward, No beneath that.

- ORDERED RESIDUES: "RRIRLRPPRLPRPRPRPRRDPRP"
  TGT: "Escherichia coli TOP10"
  CLASSIFICATION: "Yes"
- ORDERED RESIDUES: "RRIRARPPRLPRPRPRPEWGPRP"
  TGT: "Escherichia coli TOP10"
  CLASSIFICATION: "Yes"
- ORDERED RESIDUES: "RRIRLRPPRLPRPRPRPNLPPRP"
  TGT: "Escherichia coli TOP10"
  CLASSIFICATION: "No"
- ORDERED RESIDUES: "RRIRARPPRLPRPRPRPYLRPRP"
  TGT: "Escherichia coli TOP10"
  CLASSIFICATION: "No"
- ORDERED RESIDUES: "RRIRNRPPRLPRPRPRPQKLPRP"
  TGT: "Escherichia coli TOP10"
  CLASSIFICATION: "Yes"
- ORDERED RESIDUES: "RRIRCRPPRLPRPRPRPSLSPRP"
  TGT: "Escherichia coli TOP10"
  CLASSIFICATION: "No"
- ORDERED RESIDUES: "RRIRRRPPRLPRPRPRPCMTPRP"
  TGT: "Escherichia coli TOP10"
  CLASSIFICATION: "Yes"
- ORDERED RESIDUES: "RRIRARPPRLPRPRPRPYKRPRP"
  TGT: "Escherichia coli TOP10"
  CLASSIFICATION: "No"
- ORDERED RESIDUES: "RRIRVRPPRLPRPRPRPNYWPRP"
  TGT: "Escherichia coli TOP10"
  CLASSIFICATION: "No"
- ORDERED RESIDUES: "RRIRSRPPRLPRPRPRPMGKPRP"
  TGT: "Escherichia coli TOP10"
  CLASSIFICATION: "Yes"
- ORDERED RESIDUES: "RRIRSRPPRLPRPRPRPNNDPRP"
  TGT: "Escherichia coli TOP10"
  CLASSIFICATION: "No"
- ORDERED RESIDUES: "RRIRSRPPRLPRPRPRPYMWPRP"
  TGT: "Escherichia coli TOP10"
  CLASSIFICATION: "No"
- ORDERED RESIDUES: "RRIRWRPPRLPRPRPRPEWVPRP"
  TGT: "Escherichia coli TOP10"
  CLASSIFICATION: "Yes"
- ORDERED RESIDUES: "RRIRPRPPRLPRPRPRPDPEPRP"
  TGT: "Escherichia coli TOP10"
  CLASSIFICATION: "Yes"
- ORDERED RESIDUES: "RRIRTRPPRLPRPRPRPYKSPRP"
  TGT: "Escherichia coli TOP10"
  CLASSIFICATION: "Yes"
